# assayRemarks: Resazurin reduction cytotoxicity assay, HepG2
# conditionContext: human, HepG2 hepatocellular carcinoma cells
Listing of entries alongside the reported CC50 at 24 h.

Consider the worked cases shown below.
I'd like to know its CC50 at 24 h. The compound in question is C/C1=C\CC(C)(C)/C=C/C(=O)/C(C)=C/CC1 [Zerumbone]
> 250 µM

I'd like to know its CC50 at 24 h. The compound in question is COc1cc2oc(-c3ccc(O)c(O)c3)cc(=O)c2c(O)c1OC [Cirsiliol]
> 250 µM

I'd like to know its CC50 at 24 h. The compound in question is CC(C)=CCC[C@](C)(O)[C@@H]1CC=C(C)CC1 [α-bisabolol]
> 250 µM

Okay, now this compound:
I'd like to know its CC50 at 24 h. The compound in question is C=Cc1c(C)c2cc3nc(c4c5[nH]c(cc6nc(cc1[nH]2)C(C)=C6CC)c(C)c5C(=O)[C@@H]4C(=O)OC)[C@@H](CCC(=O)O)[C@@H]3C [Pheophorbide A]
> 84.3 µM
